B1: TPR 5TU (parent)
chain: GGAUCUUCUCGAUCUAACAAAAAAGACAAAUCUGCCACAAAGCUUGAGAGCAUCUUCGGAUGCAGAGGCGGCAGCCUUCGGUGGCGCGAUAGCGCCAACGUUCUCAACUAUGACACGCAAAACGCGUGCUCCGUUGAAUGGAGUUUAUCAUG

Variants of: B1
assay_info: polymerase ribozyme fitness, log enrichment relative to wild type (log ratio); higher = more active; in vitro selection for triplet polymerase activity
Variants at the floor of the assay were thinned out.
Recorded polymerase ribozyme fitness (log ratio) for the following variants

Solved cases (2 shown):
| mutations | polymerase ribozyme fitness (log ratio) |
| --- | --- |
| C51G C76A C87U | ≤ -4.2 |
| A41C U61A C76A A91U C99A A110U A150C | ≤ -4.2 |

Look up polymerase ribozyme fitness (log ratio) for this variant: A29C A52C U53A C54U C75G C129A
≤ -4.2

Please look up its polymerase ribozyme fitness (log ratio): A40G A52G A91U U102C A138U G143U
≤ -4.2

# polymerase ribozyme fitness (log ratio) lookup, item A19G G46C A107U A120C C129U
≤ -4.2
